# Tested on: EKVX
# TEST DETAILS: NCI-60 one-dose screen
# Assay type: cell-based
# MEASUREMENT CONTEXT: Homo sapiens, Non-small cell lung panel, single dose 10^−5 M, read-out: Growth inhibition %
TEST READOUT: inhibition at 10 µM (%)
Just the number please, in %, no unit attached.

Here is how some compounds turned out for inhibition at 10 µM.
| COMPOUND | ASSAY SYSTEM | inhibition at 10 µM (%) |
| --- | --- | --- |
| Fc1cccc(CNc2c3ccccc3nc3ccccc23)c1F [Compound 20, Acridin-9-yl-(2,3-difluorobenzyl)-amine] | EKVX | 37.1 |
| Clc1ccc(CNc2c3ccccc3nc3ccccc23)cc1 [Compound 13, Acridin-9-yl-(4-chlorobenzyl)-amine] | EKVX | 37.4 |

q: Field request: inhibition at 10 µM | item: COc1ccc2nc3ccccc3c(NCc3ccc(F)cc3)c2c1 [Compound 28]
a: 77.6

q: Field request: inhibition at 10 µM | item: Cc1ccc2nc3ccccc3c(NCc3ccccc3)c2c1 [Compound 30, Benzyl-(2-methylacridin-9-yl)-amine]
a: 50.4

q: Field request: inhibition at 10 µM | item: Fc1ccc(CNc2c3ccccc3nc3ccccc23)cc1F [Compound 22, Acridin-9-yl-(3,4-difluorobenzyl)-amine]
a: 64.5

q: Field request: inhibition at 10 µM | item: Cc1ccc2nc3ccccc3c(NCc3ccc(Cl)cc3)c2c1 [Compound 31]
a: 44.6

q: Field request: inhibition at 10 µM | item: Clc1ccccc1CNc1c2ccccc2nc2ccccc12 [Compound 11, Acridin-9-yl-(2-chlorobenzyl)-amine]
a: 74.1

q: Field request: inhibition at 10 µM | item: c1ccc(CNc2c3ccccc3nc3ccccc23)cc1 [Compound 1, Acridin-9-yl-benzyl-amine]
a: 51.9

q: Field request: inhibition at 10 µM | item: c1coc(CNc2c3ccccc3nc3ccccc23)c1 [Compound 14, Acridin-9-yl-furan-2-ylmethyl-amine]
a: 38

* * *

# ASSAY SYSTEM: PDE5A (Homo sapiens)
# Construct: purchased BPS Bioscience, San Diego, CA, USA
# TEST DETAILS: Phosphodiesterase 5 HTRF cGMP assay
# Type: biochemical
# MEASUREMENT CONTEXT: read-out: PDE5 % Inhibition at 10 μM
TEST READOUT: inhibition at 10 µM (%)
Just the number please, in %, no unit attached.

Here is how some molecules turned out for inhibition at 10 µM.
| COMPOUND | TEST READOUT | RESULT UNIT | REPORTED VALUE |
| --- | --- | --- | --- |
| Fc1ccc(CNc2c3ccccc3nc3ccccc23)cc1 | inhibition at 10 µM | % | 47 |
| Fc1ccc(CNc2c3ccccc3nc3ccccc23)cc1F | inhibition at 10 µM | % | 36.2 |
| COc1ccc(CNc2c3ccccc3nc3ccc(OC)cc23)cc1 | inhibition at 10 µM | % | 88.8 |
| Fc1cccc(CNc2c3ccccc3nc3ccccc23)c1F | inhibition at 10 µM | % | 57.9 |
| c1csc(CNc2c3ccccc3nc3ccccc23)c1 | inhibition at 10 µM | % | 58.4 |
| COc1ccc2nc3ccccc3c(NCc3ccccc3)c2c1 | inhibition at 10 µM | % | 77.2 |
| Clc1ccc(CNc2c3ccccc3nc3ccccc23)cc1 | inhibition at 10 µM | % | 45.3 |
| c1ccc(CCNc2c3ccccc3nc3ccccc23)cc1 | inhibition at 10 µM | % | 57.3 |

q: Field request: inhibition at 10 µM | item: Fc1ccc(CNc2c3ccccc3nc3ccccc23)c(F)c1
a: 31.9

q: Field request: inhibition at 10 µM | item: c1csc(-c2ccc(CNc3c4ccccc4nc4ccccc34)cc2)c1
a: 42.9

q: Field request: inhibition at 10 µM | item: Clc1cccc(CNc2c3ccccc3nc3ccccc23)c1
a: 62.2

q: Field request: inhibition at 10 µM | item: COc1ccccc1CNc1c2ccccc2nc2ccccc12
a: 45.1

q: Field request: inhibition at 10 µM | item: COc1ccc2nc3ccccc3c(NCc3ccc(Cl)cc3)c2c1
a: 66.1

q: Field request: inhibition at 10 µM | item: Cc1ccc2nc3ccccc3c(NCc3ccccc3)c2c1
a: 68.8
